Listed here: items and their measured combination Emax.
tested on: PANC-03-27 (Pancreatic Carcinoma); experiment: combination Emax (second highest fraction inhibited in the dose matrix, 72 h); higher = more inhibition; extreme values may be limits of the assay
I only need the number, thanks.

[[record]]
compound = "O=C(c1cc(Cc2n[nH]c(=O)c3ccccc23)ccc1F)N1CCN(C(=O)C2CC2)CC1 [Olaparib] + Cc1c2c(nn1C)CSCc1cc(n(C)n1)CSc1cc(c3ccccc3c1)OCCCc1c(C(=O)O)n(C)c3c-2c(Cl)ccc13 [AZD5991] (first compound max 10 µM, 7x7, partner max 1 µM)"
observed_property = "combination Emax"
endpoint_value = 0.128

[[record]]
compound = "Cc1c2c(nn1C)CSCc1cc(n(C)n1)CSc1cc(c3ccccc3c1)OCCCc1c(C(=O)O)n(C)c3c-2c(Cl)ccc13 [AZD5991] + CN(C)CCCOc1ccc(-c2ccc3ncc4c(c3c2)n(C2CCOCC2)c(=O)n4C)cn1 [AZD0156] (first compound max 1 µM, 7x7, partner max 1 µM)"
observed_property = "combination Emax"
endpoint_value = 0.254


Moving on to the next compound.
Exercise: Item under review: CC1(C)CCC(CN2CCN(c3ccc(C(=O)NS(=O)(=O)c4ccc(NCC5CCOCC5)c([N+](=O)[O-])c4)c(Oc4cnc5[nH]ccc5c4)c3)CC2)=C(c2ccc(Cl)cc2)C1 [Venetoclax] + CS(=O)(=O)CCNCc1ccc(-c2ccc3ncnc(Nc4ccc(OCc5cccc(F)c5)c(Cl)c4)c3c2)o1 [Lapatinib] (first compound max 1 µM, 7x7, partner max 10 µM) . Reported combination Emax?
Solution: 0.5
